# testedOn: spermidine synthase (Homo sapiens, UniProt P19623)
# Construct: Human SPDS gene was amplified by PCR, inserted into an entry vector pENTR11; made in house; host or cells: HEK293 cells (transient transfection, Lipofectamine 2000)
# Sequence (P19623 whole entry): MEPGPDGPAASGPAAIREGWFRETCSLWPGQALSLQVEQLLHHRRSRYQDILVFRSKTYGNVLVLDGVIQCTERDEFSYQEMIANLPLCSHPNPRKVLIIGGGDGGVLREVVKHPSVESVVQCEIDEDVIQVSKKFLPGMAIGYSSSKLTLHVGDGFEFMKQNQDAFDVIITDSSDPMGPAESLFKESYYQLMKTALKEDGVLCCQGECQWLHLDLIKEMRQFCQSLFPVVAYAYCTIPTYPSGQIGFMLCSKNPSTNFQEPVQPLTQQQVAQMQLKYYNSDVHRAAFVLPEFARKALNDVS
# runDescription: Activity measurement of spermidine synthase by HTRF
# Type: biochemical
# statedConditions: measured by HTRF; read-out: IC50 value, inhibition of MTA production by SPDS
pIC50: −log10 of the molar value.

| compound | pIC50 |
| --- | --- |
| CC1CCC(N)CC1 (stereo not shown) | 5.96 |

###

# testedOn: spermidine synthase (Homo sapiens, UniProt P19623)
# Construct: Human SPDS gene was amplified by PCR, inserted into an entry vector pENTR11; made in house; host or cells: HEK293 cells (transient transfection, Lipofectamine 2000)
# runDescription: Activity measurement of spermidine synthase by ELISA
# Assay type: biochemical
# statedConditions: measured by ELISA; read-out: IC50 value, inhibition of MTA production by SPDS

| compound | IC50 / nM |
| --- | --- |
| CC1CCC(N)CC1 (stereo not shown) [4-methylcyclohexylamine] | 1000 |

src = patent US20070280946A1
